Test system: Porcine Atria myofibrils
Test: Myofibril ATPase assay (PK/LDH NADH-coupled), atria myofibrils
Assay type: biochemical
Details: Table 8

| Molecule | Porcine Atria IC25 / nM |
| --- | --- |
| Cc1cccnc1[C@@H](C)NC(=O)CN1Cc2c(ccc(F)c2F)NC1=O | 2280 |
| CC(NC(=O)CN1Cc2c(ccc(F)c2F)NC1=O)c1cc2c(cn1)OCCN2C (single isomer, unassigned) | 1240 |
| C[C@H](NC(=O)CN1Cc2c(F)cccc2NC1=O)c1ccc(F)cc1F | 50 |
| CNC(=O)N1CC2(C1)c1cc(F)ccc1NC(=O)N2CC(=O)N[C@@H](C)c1ncc(C#N)cc1F | 100000 |
| C[C@@H](NC(=O)CN1Cc2c(ccc(F)c2F)NC1=O)c1cc2c(cn1)N(C)CCO2 | 44860 |
| C[C@H](NC(=O)C1(N2Cc3c(ccc(F)c3F)NC2=O)CC1)c1ncc(C#N)cc1F | 60 |

---

System: Rabbit Skeletal myofibrils (rabbit psoas muscle)
Assay: Myofibril ATPase assay (PK/LDH NADH-coupled), skeletal myofibrils
Format: biochemical
Conditions: Table 8
# Rabbit Psoas IC25 per record follows
Attribute measured: Rabbit Psoas IC25 (µM)

| Compound | Target or test system | Test value |
| --- | --- | --- |
| C[C@H](NC(=O)CN1C(=O)Nc2ccccc2[C@H]1C)c1ccc(F)cc1F [Compound B155] | Rabbit Skeletal myofibrils (rabbit psoas muscle) | 0.0851 |
| C[C@H](NC(=O)CN1C(=O)Nc2ccccc2C12CC2)c1ccc(F)cc1F | Rabbit Skeletal myofibrils (rabbit psoas muscle) | 0.0356 |
| COc1cnc([C@H](C)NC(=O)CN2Cc3cc(F)ccc3NC2=O)c(F)c1 | Rabbit Skeletal myofibrils (rabbit psoas muscle) | 100 |
| C[C@@H](NC(=O)CN1Cc2c(ccc(F)c2F)NC1=O)c1ncc(C#N)cn1 | Rabbit Skeletal myofibrils (rabbit psoas muscle) | 4.205 |
| O=C(CN1Cc2cc(F)ccc2NC1=O)N[C@H]1COc2cc(F)cc(F)c21 | Rabbit Skeletal myofibrils (rabbit psoas muscle) | 5.163 |
| C[C@H](NC(=O)[C@H](C)N1Cc2c(F)cccc2NC1=O)c1ccc(F)cc1F | Rabbit Skeletal myofibrils (rabbit psoas muscle) | 0.041 |
| O=C(CN1Cc2cc(F)ccc2NC1=O)N[C@H](CO)c1ncc(F)cc1F | Rabbit Skeletal myofibrils (rabbit psoas muscle) | 100 |
| C[C@@H]1c2ccccc2NC(=O)N1CC(=O)N[C@H](C)c1ncc(F)cc1F | Rabbit Skeletal myofibrils (rabbit psoas muscle) | 18.11 |

---

Target: Porcine Ventricle myofibrils (left ventricle of Yucatan minipigs) (Sus scrofa, UniProt P79293)
Construct: Myofibrils from porcine cardiac muscle was isolated from the left ventricle of Yucatan minipigs; tissue Exemplar Genetics; host or cells: left ventricle of Yucatan minipigs
Sequence (P79293 whole entry): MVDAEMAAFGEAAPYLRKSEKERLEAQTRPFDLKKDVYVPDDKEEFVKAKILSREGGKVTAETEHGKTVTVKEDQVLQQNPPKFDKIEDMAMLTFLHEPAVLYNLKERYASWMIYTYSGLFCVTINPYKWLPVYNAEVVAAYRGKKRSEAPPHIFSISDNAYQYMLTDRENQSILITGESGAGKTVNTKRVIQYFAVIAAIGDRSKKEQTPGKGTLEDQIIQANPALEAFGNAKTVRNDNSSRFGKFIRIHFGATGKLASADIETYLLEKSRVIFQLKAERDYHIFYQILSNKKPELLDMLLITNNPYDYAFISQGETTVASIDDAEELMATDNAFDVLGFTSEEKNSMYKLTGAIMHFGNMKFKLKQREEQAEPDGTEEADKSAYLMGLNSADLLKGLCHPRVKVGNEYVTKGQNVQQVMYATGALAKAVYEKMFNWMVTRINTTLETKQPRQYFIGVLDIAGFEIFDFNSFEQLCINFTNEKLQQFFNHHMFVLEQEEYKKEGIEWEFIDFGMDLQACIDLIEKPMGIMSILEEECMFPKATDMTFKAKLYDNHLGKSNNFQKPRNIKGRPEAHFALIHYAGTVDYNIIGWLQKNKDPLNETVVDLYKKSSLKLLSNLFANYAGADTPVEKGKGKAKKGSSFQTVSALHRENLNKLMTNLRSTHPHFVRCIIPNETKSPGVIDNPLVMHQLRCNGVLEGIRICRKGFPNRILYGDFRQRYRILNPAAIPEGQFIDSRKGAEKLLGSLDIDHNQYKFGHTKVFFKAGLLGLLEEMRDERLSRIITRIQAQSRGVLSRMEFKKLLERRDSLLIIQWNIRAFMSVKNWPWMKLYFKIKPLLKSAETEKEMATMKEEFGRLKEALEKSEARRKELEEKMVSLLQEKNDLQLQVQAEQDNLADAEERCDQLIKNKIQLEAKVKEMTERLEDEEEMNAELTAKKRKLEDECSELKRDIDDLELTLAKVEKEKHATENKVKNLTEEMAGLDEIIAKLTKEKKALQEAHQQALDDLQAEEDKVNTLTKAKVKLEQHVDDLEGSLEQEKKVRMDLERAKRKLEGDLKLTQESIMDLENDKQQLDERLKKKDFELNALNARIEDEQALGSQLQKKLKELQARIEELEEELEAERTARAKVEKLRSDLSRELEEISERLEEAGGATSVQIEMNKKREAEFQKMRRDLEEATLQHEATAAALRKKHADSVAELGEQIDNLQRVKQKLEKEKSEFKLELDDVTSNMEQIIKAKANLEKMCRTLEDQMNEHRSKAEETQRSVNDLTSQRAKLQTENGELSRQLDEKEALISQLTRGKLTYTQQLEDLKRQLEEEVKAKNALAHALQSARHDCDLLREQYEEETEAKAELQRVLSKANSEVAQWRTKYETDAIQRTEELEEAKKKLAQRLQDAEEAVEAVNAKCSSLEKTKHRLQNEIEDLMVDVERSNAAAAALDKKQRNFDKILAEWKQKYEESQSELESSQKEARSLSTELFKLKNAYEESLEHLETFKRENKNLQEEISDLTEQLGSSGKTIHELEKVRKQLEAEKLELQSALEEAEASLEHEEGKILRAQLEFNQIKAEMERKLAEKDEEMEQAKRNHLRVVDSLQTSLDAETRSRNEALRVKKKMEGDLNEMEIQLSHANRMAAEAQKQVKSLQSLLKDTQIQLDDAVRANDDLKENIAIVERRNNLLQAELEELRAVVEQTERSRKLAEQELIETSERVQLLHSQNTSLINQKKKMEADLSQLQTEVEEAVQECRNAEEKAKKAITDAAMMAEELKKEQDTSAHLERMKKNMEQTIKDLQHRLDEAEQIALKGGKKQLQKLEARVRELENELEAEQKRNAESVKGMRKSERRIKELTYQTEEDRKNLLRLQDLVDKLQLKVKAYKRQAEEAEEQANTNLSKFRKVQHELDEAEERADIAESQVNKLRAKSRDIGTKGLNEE
Assay: Myofibril ATPase assay (PK/LDH NADH-coupled), ventricle myofibrils
Type: biochemical
Conditions: Table 7
Property: Porcine Ventricle IC25; scope: individual compounds
Attribute measured: Porcine Ventricle IC25 (µM)

| Given smiles | Attribute measured | Test value |
| --- | --- | --- |
| C[C@H](NC(=O)[C@@H](C)N1Cc2c(ccnc2Br)NC1=O)c1ccc(F)cc1F | Porcine Ventricle IC25 | 5.968 |
| C[C@@H](NC(=O)CN1C(=O)Nc2cccnc2C12CC2)c1ccc(C#N)cn1 | Porcine Ventricle IC25 | 100 |
| COc1ccc2c(n1)CN([C@H](C)C(=O)N[C@@H](C)c1ccc(F)cc1F)C(=O)N2 | Porcine Ventricle IC25 | 100 |
| C[C@H](NC(=O)CN1Cc2c(ccnc2C#N)NC1=O)c1ccc(C#N)cc1F | Porcine Ventricle IC25 | 0.1625 |
| C[C@H](NC(=O)CN1Cc2c(ccnc2C2CC2)NC1=O)c1ccc(F)cc1F | Porcine Ventricle IC25 | 73.05 |
| C[C@@H](NC(=O)CN1Cc2c(ccnc2C#N)NC1=O)c1ncc(F)cc1F | Porcine Ventricle IC25 | 100 |
| C[C@H](NC(=O)CN1Cc2c(ccnc2C#N)NC1=O)c1ccc(F)cc1F | Porcine Ventricle IC25 | 0.545 |
| C[C@H](NC(=O)CN1Cc2cc(Cl)cnc2NC1=O)c1ccc(F)cc1F | Porcine Ventricle IC25 | 100 |
